B1: HDV Ribozyme (parent)
chain: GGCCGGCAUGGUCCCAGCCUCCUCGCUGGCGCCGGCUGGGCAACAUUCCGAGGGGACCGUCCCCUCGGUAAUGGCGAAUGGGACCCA

Variants of: B1
assayProcedure: self-cleavage, relative activity (ratio to wild type); higher = more cleavage; co-transcriptional
Overview of recorded self-cleavage for various variants
// print number alone

G34A A87G; 0.159
C57U U72C; 0.566
G10U U27C; 0.554
U37A A43U; 0.0437
C58A U79G; 0.772
G5U A71C; 0

Problem: Report measured self-cleavage; entry is C33A U69A
Result: 0.325

Problem: Indicate the recorded self-cleavage value for this variant: A16U C24U
Result: 0.314

Problem: Read the entry C22G C62U and write its reported self-cleavage.
Result: 0.0346

Problem: Give self-cleavage for the following variant: C3U C86U
Result: 0.718

Problem: Given C7G C36A , respond with its self-cleavage.
Result: 0.111

Problem: Please list self-cleavage recorded for the variant U23C G55A
Result: 0.814

Problem: Write down self-cleavage measured for item C61U A87C
Result: 0.784

Problem: Write down self-cleavage measured for item G10C G17C
Result: 0.208

Problem: // fetch self-cleavage given entry G5A G68C
Result: 0.17

Problem: Output self-cleavage of C3A C33A
Result: 0.0698

Problem: For the variant C4U G25U , report self-cleavage.
Result: 0.0287

Problem: Read off the recorded self-cleavage for A56C G76A
Result: 1.17
